meta.source: patent US20190359693A1

Would you mind telling me the reported VNA IC50 of each entry?
experimental system: hemagglutinin (HA) of influenza B/Lee/40 (Old) (influenza B virus) (UniProt P03460)
Sequence (P03460 16-584 limits assumed): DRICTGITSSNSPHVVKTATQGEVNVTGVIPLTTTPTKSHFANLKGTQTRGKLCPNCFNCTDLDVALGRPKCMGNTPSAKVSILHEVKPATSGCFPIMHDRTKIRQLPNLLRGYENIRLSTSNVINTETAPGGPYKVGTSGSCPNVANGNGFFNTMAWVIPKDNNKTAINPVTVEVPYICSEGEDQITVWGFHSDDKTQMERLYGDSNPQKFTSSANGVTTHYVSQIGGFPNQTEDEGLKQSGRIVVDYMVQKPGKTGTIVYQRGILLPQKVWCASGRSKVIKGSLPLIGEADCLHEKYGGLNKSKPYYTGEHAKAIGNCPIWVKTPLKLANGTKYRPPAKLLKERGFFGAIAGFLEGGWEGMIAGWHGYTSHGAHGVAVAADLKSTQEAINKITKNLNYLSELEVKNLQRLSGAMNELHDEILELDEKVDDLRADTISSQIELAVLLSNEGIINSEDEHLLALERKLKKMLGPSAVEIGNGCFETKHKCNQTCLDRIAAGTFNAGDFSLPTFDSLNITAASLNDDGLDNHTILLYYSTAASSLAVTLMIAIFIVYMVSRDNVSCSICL
measurement description: cell-based or functional assay
All answers are understood in nM, so give the number only.

In: Suppose we examine the binder SD3069 (VHH) VHH: EVQLVESGGGLVQPGGSLRLSCAISGLSLDTYAVGWFRQAPGKEREGITCISSGHGMTYYADSVKGRFTVSTDNSKNTLYLQMNSLRAEDTAVYYCATESRYYCSDNWPAPQRYIYWGQGTLVTVSS ; what VNA IC50 value has been reported?
Out: 67

In: And what about the binder SD3011 (VHH) VHH: EVQLLESGGGLVQPGGSLRLSCAASGFTLENKAIGWFRQAPGKEREGVLCISKSGSWTYYADSVKGRFTISRDNSKNTVYLQMNSLRAEDTAVYYCATTTAGGGLCWDGTTFSRLASSWGQGTQVTVSS ?
Out: 59

In: And what about the binder SD3009 (VHH) VHH: EVQLLESGGGLVQPGGSLRLSCAASGFTLENKAMSWFRQAPGKEREGVLCISKSGSWTYYADSVKGRFTISRDNSKNTLYLQMNSLRAEDTAVYYCATTTAGGGLCWDGTTFSRLASSWGQGTQVTVSS ?
Out: 372

In: And what about the binder SD3010 (VHH) VHH: EVQLLESGGGLVQPGGSLRLSCAASGFTLENKAIGWFRQAPGKEREGVLCISKSGSWTYYADSVKGRFTISRDNSKNTLYLQMNSLRAEDTAVYYCATTTAGGGLCWDGTTFSRLASSWGQGTQVTVSS ?
Out: 227
